All figures here come from ChEMBL document CHEMBL4689842.

- System: U2OS
- ASSAY_TEXT: Multiplex assay against U2OS
- Assay type: toxicity, cell-based
- TEST_CONTEXT: human, 48 h, 1 µM, compound concentration 1 uM, replicate 2
RECORDED_ENDPOINT: Population Membrane Permeable-Phenotype (%)

{"MOLECULE": "CN1CCCC(n2nc(Cc3ccc(Cl)cc3)c3ccccc3c2=O)CC1.Cl (centres undefined) [AZELASTINE HYDROCHLORIDE]", "MEASURED_VALUE": "16%"}
{"MOLECULE": "Cc1[nH]c(/C=C2\\C(=O)Nc3ccc(S(=O)(=O)N(C)c4cccc(Cl)c4)cc32)c(C)c1C(=O)N1CCN(C)CC1", "MEASURED_VALUE": "21%"}
{"MOLECULE": "Cn1cc(-c2[nH]c3cc(NC(=O)[C@H](N)C4CCCCC4)cc4c3c2C=NNC4=O)cn1", "MEASURED_VALUE": "16%"}
{"MOLECULE": "COc1cc(-n2cnc3cc(-c4ccc(Cl)cc4)sc3c2=O)ccc1OCCN1CCCC1", "MEASURED_VALUE": "21%"}

====

- Tested on: U2OS
- ASSAY_TEXT: Incucyte cell viability with U2OS; also: filed as whole numbers so only -1 and 0 and 1 occur
- Assay type: toxicity, cell-based
- TEST_CONTEXT: human, 24 h, 10 µM, compound concentration 10 uM, replicate number 1, timepoint 24 hours
# maps each entry to its Growth Rate

{"COMPOUND": "CN1CCN(CCOc2cc(OC3CCOCC3)c3c(Nc4c(Cl)ccc5c4OCO5)ncnc3c2)CC1", "TEST_TARGET": "U2OS", "Growth Rate": 0}
{"COMPOUND": "O=C(O)C[C@H]1CCc2c1[nH]c1ccc(OCc3ccc(C4CCCC4)c(C(F)(F)F)c3)cc21", "TEST_TARGET": "U2OS", "Growth Rate": 1}
{"COMPOUND": "Cn1cc(C2=C(c3cn(C4CCN(Cc5ccccn5)CC4)c4ccccc34)C(=O)NC2=O)c2ccccc21", "TEST_TARGET": "U2OS", "Growth Rate": 0}
{"COMPOUND": "O=C1NCN(c2ccccc2)C12CCN(CCCOc1ccc(F)cc1)CC2 [SPIRAMIDE]", "TEST_TARGET": "U2OS", "Growth Rate": 0}
{"COMPOUND": "C[C@H]1CC(=O)Nc2cc(C(=O)NCCC3CC3)ccc2N1C(=O)N1CC2CC2C1 (stereo partly drawn)", "TEST_TARGET": "U2OS", "Growth Rate": 1}
{"COMPOUND": "Cc1cccc(-c2cnc3occ(-c4ccc(C(=O)O)c(C5CCCC5)c4)c3c2)c1", "TEST_TARGET": "U2OS", "Growth Rate": 1}
{"COMPOUND": "Cc1[nH]c(/C=C2\\C(=O)Nc3ccc(S(=O)(=O)N(C)c4cccc(Cl)c4)cc32)c(C)c1C(=O)N1CCN(C)CC1", "TEST_TARGET": "U2OS", "Growth Rate": 0}
{"COMPOUND": "CCOc1cc(N2CCC(O)CC2)ccc1Nc1ncc2c(n1)N(C)c1ccccc1C(=O)N2C", "TEST_TARGET": "U2OS", "Growth Rate": 1}

====

- Test system: Fibroblast
- ASSAY_TEXT: Multiplex assay against human fibroblast
- Type: toxicity, cell-based
- TEST_CONTEXT: 48 h, 10 µM, compound concentration 10 uM, replicate 1
RECORDED_ENDPOINT: Total Cell Count

{"COMPOUND": "COc1cccc([C@@H](C)NCCCc2ccccc2Cl)c1.Cl [TECALCET HYDROCHLORIDE]", "MEASURED_VALUE": 207}
{"COMPOUND": "CN1CCCC(n2nc(Cc3ccc(Cl)cc3)c3ccccc3c2=O)CC1.Cl (centres undefined) [AZELASTINE HYDROCHLORIDE]", "MEASURED_VALUE": 207}
{"COMPOUND": "c1cn2cc(-c3ccc4cn[nH]c4c3)nc(Nc3ccc(N4CCOCC4)cc3)c2n1", "MEASURED_VALUE": 1093}
{"COMPOUND": "O=C1NCN(c2ccccc2)C12CCN(CCCOc1ccc(F)cc1)CC2 [SPIRAMIDE]", "MEASURED_VALUE": 186}

====

- Tested on: HEK-293T
- ASSAY_TEXT: Multiplex assay against HEK293T
- Format: toxicity, cell-based
- TEST_CONTEXT: human, 48 h, 1 µM, compound concentration 1 uM, replicate 2
RECORDED_ENDPOINT: Population Membrane Permeable-Phenotype (%)

{"MOLECULE": "CN1CCC[C@@H]1CCO[C@](C)(c1ccccc1)c1ccc(Cl)cc1.O=C(O)/C=C/C(=O)O [CLEMASTINE FUMARATE]", "MEASURED_VALUE": 5}
{"MOLECULE": "Cn1cc(-c2[nH]c3cc(NC(=O)[C@H](N)C4CCCCC4)cc4c3c2C=NNC4=O)cn1", "MEASURED_VALUE": 17}
{"MOLECULE": "COc1cccc([C@@H](C)NCCCc2ccccc2Cl)c1.Cl [TECALCET HYDROCHLORIDE]", "MEASURED_VALUE": 8}
{"MOLECULE": "CN(C)C(=O)N[C@H]1CC[C@H](CCN2CCN(c3cccc(Cl)c3Cl)CC2)CC1.Cl [CARIPRAZINE HYDROCHLORIDE]", "MEASURED_VALUE": 2}
{"MOLECULE": "CN(C)C(=O)/C(C#N)=C/c1ccc(-c2nc3cnc4[nH]ccc4c3n2C2CCCCC2)o1", "MEASURED_VALUE": 8}
{"MOLECULE": "Cc1nc(-c2ccc(-c3ccc(C(=O)N4CCc5cc6c(cc54)C4(CCN(C)CC4)CO6)cc3)c(C)c2)no1 [SB-224289]", "MEASURED_VALUE": 2}

====

- System: HEK-293T
- ASSAY_TEXT: Incucyte cell viability with HEK293T; also: filed as whole numbers so only -1 and 0 and 1 occur
- Type: toxicity, cell-based
- TEST_CONTEXT: human, 12 h, 10 µM, compound concentration 10 uM, replicate number 1, timepoint 12 hours
Some compounds, each annotated with its measured Growth Rate.

{"COMPOUND": "CCCCN1CCC(COC(=O)c2cc(Cl)c(N)c3c2OCCO3)CC1.Cl", "TEST_TARGET": "HEK-293T", "Growth Rate": 0}
{"COMPOUND": "C=C1/C(=C\\C=C2/CCC[C@]3(C)[C@@H]([C@H](C)/C=C/C=C/C(O)(CC)CC)CC[C@@H]23)C[C@@H](O)C[C@@H]1O", "TEST_TARGET": "HEK-293T", "Growth Rate": 0}
{"COMPOUND": "CN([C@@H]1CCc2c(CC(=O)O)c3ccccc3n2C1)S(=O)(=O)c1ccc(F)cc1", "TEST_TARGET": "HEK-293T", "Growth Rate": 0}
{"COMPOUND": "C[C@@H](NCCCc1cccc(C(F)(F)F)c1)c1cccc2ccccc12.Cl [CINACALCET HYDROCHLORIDE]", "TEST_TARGET": "HEK-293T", "Growth Rate": 0}
{"COMPOUND": "CC(C)(C)NCC(O)COc1cccc2[nH]c(=O)[nH]c12.Cl (stereo not drawn)", "TEST_TARGET": "HEK-293T", "Growth Rate": 0}
{"COMPOUND": "C[S+]([O-])c1ccc(-c2nc(-c3ccncc3)c(-c3ccc(F)cc3)[nH]2)cc1 (stereo not drawn)", "TEST_TARGET": "HEK-293T", "Growth Rate": 0}
{"COMPOUND": "O=S(=O)(c1ccccc1)N(CC(F)(F)F)c1ccc(C(O)(C(F)(F)F)C(F)(F)F)cc1", "TEST_TARGET": "HEK-293T", "Growth Rate": 0}
{"COMPOUND": "CN1CCN(CCOc2cc(OC3CCOCC3)c3c(Nc4c(Cl)ccc5c4OCO5)ncnc3c2)CC1", "TEST_TARGET": "HEK-293T", "Growth Rate": 0}

====

- System: HEK-293T
- ASSAY_TEXT: Multiplex assay against HEK293T
- Format: toxicity, cell-based
- TEST_CONTEXT: human, 48 h, 10 µM, compound concentration 10 uM, replicate 2

{"COMPOUND": "CC(C)(O)CNc1ncc(-c2ccnc(Nc3ccnc(Cl)c3)n2)c(CC2CC2)n1", "TEST_TARGET": "HEK-293T", "Population Healthy Nuclei (%)": 3}
{"COMPOUND": "CN1CCN(CCOc2cc(OC3CCOCC3)c3c(Nc4c(Cl)ccc5c4OCO5)ncnc3c2)CC1", "TEST_TARGET": "HEK-293T", "Population Healthy Nuclei (%)": 41}
{"COMPOUND": "CC[C@H](C)C(=O)O[C@H]1C[C@@H](C)C=C2C=C[C@H](C)[C@H](CC[C@@H]3C[C@@H](O)CC(=O)O3)[C@H]21", "TEST_TARGET": "HEK-293T", "Population Healthy Nuclei (%)": 72}
{"COMPOUND": "COc1ncc(-c2ccc3nccc(-c4ccnnc4)c3c2)cc1NS(=O)(=O)c1ccc(F)cc1F", "TEST_TARGET": "HEK-293T", "Population Healthy Nuclei (%)": 38}
{"COMPOUND": "CN1CCN(c2ccc(OC(F)(F)F)c(Nc3ncc4c(n3)-c3c(c(C(N)=O)nn3CCO)CC4)c2)CC1", "TEST_TARGET": "HEK-293T", "Population Healthy Nuclei (%)": 42}
{"COMPOUND": "CN(C)CC#Cc1ccc(OCCCc2sc(N3CCc4cccc(C(=O)Nc5nc6ccccc6s5)c4C3)nc2C(=O)O)c(F)c1", "TEST_TARGET": "HEK-293T", "Population Healthy Nuclei (%)": 65}
{"COMPOUND": "Cl.N#Cc1ccc2[nH]cc(CCCCN3CCN(c4ccc5oc(C(N)=O)cc5c4)CC3)c2c1 [VILAZODONE HYDROCHLORIDE]", "TEST_TARGET": "HEK-293T", "Population Healthy Nuclei (%)": 12}
{"COMPOUND": "C=CC(=O)Nc1ccc2ncnc(Nc3ccc(OCc4cccc(F)c4)c(Cl)c3)c2c1.Cc1ccc(S(=O)(=O)O)cc1", "TEST_TARGET": "HEK-293T", "Population Healthy Nuclei (%)": 53}
{"COMPOUND": "CN(C)C(=O)N[C@H]1CC[C@H](CCN2CCN(c3cccc(Cl)c3Cl)CC2)CC1.Cl [CARIPRAZINE HYDROCHLORIDE]", "TEST_TARGET": "HEK-293T", "Population Healthy Nuclei (%)": 51}
{"COMPOUND": "Cc1c(-c2ccc(O)cc2)n(Cc2ccc(OCCN3CCCCCC3)cc2)c2ccc(O)cc12", "TEST_TARGET": "HEK-293T", "Population Healthy Nuclei (%)": 6}
{"COMPOUND": "C[C@@H](NCCCc1cccc(C(F)(F)F)c1)c1cccc2ccccc12.Cl [CINACALCET HYDROCHLORIDE]", "TEST_TARGET": "HEK-293T", "Population Healthy Nuclei (%)": 18}
{"COMPOUND": "Cn1cc(-c2[nH]c3cc(NC(=O)[C@H](N)C4CCCCC4)cc4c3c2C=NNC4=O)cn1", "TEST_TARGET": "HEK-293T", "Population Healthy Nuclei (%)": 1}
{"COMPOUND": "OC1(c2ccc(Cl)cc2)CCN(Cc2c[nH]c3ccccc23)CC1", "TEST_TARGET": "HEK-293T", "Population Healthy Nuclei (%)": 19}
{"COMPOUND": "CN1CCCC(n2nc(Cc3ccc(Cl)cc3)c3ccccc3c2=O)CC1.Cl (stereo not drawn) [AZELASTINE HYDROCHLORIDE]", "TEST_TARGET": "HEK-293T", "Population Healthy Nuclei (%)": 57}
{"COMPOUND": "CN(C)C(=O)/C(C#N)=C/c1ccc(-c2nc3cnc4[nH]ccc4c3n2C2CCCCC2)o1", "TEST_TARGET": "HEK-293T", "Population Healthy Nuclei (%)": 67}
{"COMPOUND": "C=CC(=O)Nc1cccc(C(=O)Nc2ccc(Nc3cc(-c4[nH]c(SC)nc4C)ccn3)cc2)c1", "TEST_TARGET": "HEK-293T", "Population Healthy Nuclei (%)": 75}
{"COMPOUND": "Cc1nc(-c2ccc(-c3ccc(C(=O)N4CCc5cc6c(cc54)C4(CCN(C)CC4)CO6)cc3)c(C)c2)no1", "TEST_TARGET": "HEK-293T", "Population Healthy Nuclei (%)": 28}
{"COMPOUND": "NC(=O)Nc1cc(-c2cccc(F)c2)sc1C(=O)N[C@H]1CCCNC1", "TEST_TARGET": "HEK-293T", "Population Healthy Nuclei (%)": 12}
{"COMPOUND": "Cc1[nH]c(/C=C2\\C(=O)Nc3ccc(S(=O)(=O)N(C)c4cccc(Cl)c4)cc32)c(C)c1C(=O)N1CCN(C)CC1", "TEST_TARGET": "HEK-293T", "Population Healthy Nuclei (%)": 54}
{"COMPOUND": "COc1cc(-n2cnc3cc(-c4ccc(Cl)cc4)sc3c2=O)ccc1OCCN1CCCC1", "TEST_TARGET": "HEK-293T", "Population Healthy Nuclei (%)": 28}
{"COMPOUND": "COc1cccc([C@@H](C)NCCCc2ccccc2Cl)c1.Cl [TECALCET HYDROCHLORIDE]", "TEST_TARGET": "HEK-293T", "Population Healthy Nuclei (%)": 62}
{"COMPOUND": "CNCc1ccccc1-c1csc([C@H](C)Nc2nc(C)nc3cc(OC)c(OC)cc23)c1", "TEST_TARGET": "HEK-293T", "Population Healthy Nuclei (%)": 33}
{"COMPOUND": "CCOCCn1cc(C(=O)Nc2ccc(-n3nc(-c4cccnc4)cc3C(F)(F)F)cn2)ccc1=O", "TEST_TARGET": "HEK-293T", "Population Healthy Nuclei (%)": 61}
{"COMPOUND": "CCn1c(=O)c(-c2ccc(Cl)cc2Cl)cc2cnc(Nc3ccc(N4CCNCC4)c(F)c3)nc21", "TEST_TARGET": "HEK-293T", "Population Healthy Nuclei (%)": 38}
{"COMPOUND": "CNc1nc(NCc2ccc(NS(C)(=O)=O)cc2Cl)cc(-c2ccccn2)n1", "TEST_TARGET": "HEK-293T", "Population Healthy Nuclei (%)": 26}
{"COMPOUND": "Cc1csc2c(N[C@@H](C)CN3CCN(S(=O)(=O)c4ccc(Cl)c(Cl)c4)CC3)ncnc12", "TEST_TARGET": "HEK-293T", "Population Healthy Nuclei (%)": 21}
{"COMPOUND": "CC(C)NCC(O)COc1ccc(CCOCC2CC2)cc1.Cl (stereo not drawn) [BETAXOLOL HYDROCHLORIDE]", "TEST_TARGET": "HEK-293T", "Population Healthy Nuclei (%)": 72}
{"COMPOUND": "CN1CCC[C@@H]1CCO[C@](C)(c1ccccc1)c1ccc(Cl)cc1.O=C(O)/C=C/C(=O)O [CLEMASTINE FUMARATE]", "TEST_TARGET": "HEK-293T", "Population Healthy Nuclei (%)": 15}
